For each entry below, report its phenotypic distance value.
- System: E34 (patient-derived glioblastoma stem cells of proneural subtype)
- Protocol details: phenotypic distance (Euclidean, principal components) from DMSO controls (arbitrary units); higher = stronger morphological change
- Condition context: 12.3 nM; exposure time: 72 h
Numbers only.

Here is how some molecules turned out for phenotypic distance.
# Molecule, phenotypic distance
records = [
    ("N=C(NCCCCCCNC(=N)NC(=N)Nc1ccc(Cl)cc1)NC(=N)Nc1ccc(Cl)cc1", 0.799),
    ("CC(=O)OC[C@H]1O[C@@H]([S-])[C@H](OC(C)=O)[C@@H](OC(C)=O)[C@@H]1OC(C)=O.CCP(CC)CC.[Au+]", 0.588),
    ("NCCNc1ccc(NCCN)c2c1C(=O)c1ccncc1C2=O [Pixantrone dimaleate]", 0.947),
    ("COc1cc(/C=C/C(=O)N2CCC=CC2=O)cc(OC)c1OC", 0.821),
    ("Cc1cc(/C=C/c2ccc3cc(N(C)C)ccc3[n+]2C)c(C)n1-c1ccccc1 [Pyrvinium pamoate]", 0.752),
]

Consider the record given below.
Fill in the blank: the reported phenotypic distance of "S=c1[nH]cnc2nc[nH]c12" is ____. 0.959

====

- System: E21 (patient-derived glioblastoma stem cells of mesenchymal subtype)
- Protocol details: surviving fraction (nuclei count normalised to DMSO); higher = more cells surviving (less toxic)
- Condition context: 12.3 nM; exposure time: 72 h
Structures can show the parent of a compound that is named as a salt.
Readout: surviving fraction
One number for each entry.

Solved entries (count: 2):
# Compound, Readout, Assay value
measured = [
    ("CC(NCCC(c1ccccc1)c1ccccc1)c1ccccc1 (stereo not given) [Fendiline hydrochloride]", "surviving fraction", 0.876),
    ("CC[C@@]1(O)C(=O)OCc2c1cc1n(c2=O)Cc2cc3c(CN(C)C)c(O)ccc3nc2-1 [Topotecan]", "surviving fraction", 0.135),
]

I have 3 compounds here; please give me surviving fraction for each one.
1. COc1cc2c[n+](C)c3c4cc5c(cc4ccc3c2cc1OC)OCO5 [Nitidine chloride]
2. CN1C(=O)CC(c2ccccc2)C1=O (stereo not given) [Phensuximide]
3. C/C=C1\NC(=O)[C@H]2CSSCC/C=C/[C@H](CC(=O)N[C@H](C(C)C)C(=O)N2)OC(=O)[C@H](C(C)C)NC1=O [Romidepsin]

[0.869, 0.996, 0.0766]

====

- System: E34
- Protocol details: surviving fraction (nuclei count normalised to DMSO); higher = more cells surviving (less toxic)
- Condition context: 3000 nM; exposure time: 72 h
Where a name gives a salt, the structure may show the parent alone.
Readout: surviving fraction
Give bare numbers.

As a guide, the following entries are already answered.
# Compound, surviving fraction
measured = [
    ("C=CC(=O)Nc1cc(Nc2nccc(-c3cn(C)c4ccccc34)n2)c(OC)cc1N(C)CCN(C)C [Osimertinib mesylate]", 0.702),
    ("CC1=C(/C=C/C(C)=C/C=C/C(C)=C/C(=O)Nc2ccc(O)cc2)C(C)(C)CCC1 [Retinoic acid p-hydroxyanilide]", 0.00196),
]

Then this compound:
Look up surviving fraction: "C[C@@H](Oc1cc(-c2cnn(C3CCNCC3)c2)cnc1N)c1c(Cl)ccc(F)c1Cl" 0.565

====

Please go through the items and note down their phenotypic distance.
- System: E21
- Protocol details: phenotypic distance (Euclidean, principal components) from DMSO controls (arbitrary units); higher = stronger morphological change
- Condition context: 1000 nM; exposure time: 72 h

Here is how some compounds turned out for phenotypic distance.
# Compound, Readout, Assay value
rows = [
    ("CC(C)(C)C1CCN(C(=O)n2ncc(C(O)(c3ccccc3)c3ccccc3)n2)CC1 [ML211]", "phenotypic distance", 0.885),
    ("C/C=C(\\C)C(=O)N[C@@H](c1ccccc1)[C@@H](O)C(=O)O[C@H]1C[C@@]2(O)[C@@H](OC(=O)c3ccccc3)[C@@H]3[C@]4(OC(C)=O)CO[C@@H]4C[C@H](O)[C@@]3(C)C(=O)[C@H](OC(C)=O)C(=C1C)C2(C)C [Cephalomannine]", "phenotypic distance", 6.44),
    ("O=C(Oc1cccc2cccnc12)c1ccccc1 [Benzoxiquine]", "phenotypic distance", 0.732),
]

# map each compound to its phenotypic distance
1. Oc1c(Cl)cc(Cl)c(Cl)c1Cc1c(O)c(Cl)cc(Cl)c1Cl [Hexachlorophene]
2. C[C@]12CC[C@H](O)C[C@H]1CC[C@@H]1[C@@H]2C[C@@H](O)[C@]2(C)[C@@H](C3=CC(=O)OC3)CC[C@]12O [Digoxigenin]
3. NCCNc1ccc(NCCN)c2c1C(=O)c1ccncc1C2=O [Pixantrone dimaleate]
4. CCCCC1C(=O)N(c2ccccc2)N(c2ccc(O)cc2)C1=O (stereo not drawn) [Oxyphenbutazone]
5. Cc1cccn2c(=O)c(-c3nnn[nH]3)cnc12 [Pemirolast potassium]
6. Nc1ncnc2c1c(-c1ccc(Oc3ccccc3)cc1)cn2C1CCCC1
7. O=C(/C=C/c1cccnc1)NCCCCC1CCN(C(=O)c2ccccc2)CC1 [Daporinad]
8. COc1ccc([C@@H]2CC(=O)c3c(O)cc(O[C@@H]4O[C@H](CO[C@@H]5O[C@@H](C)[C@H](O)[C@@H](O)[C@H]5O)[C@@H](O)[C@H](O)[C@H]4O)cc3O2)cc1O [Hesperidin]

[2.2, 3.95, 6, 0.698, 0.294, 1.32, 2.69, 0.753]

====

- Tested on: E34
- Protocol details: surviving fraction (nuclei count normalised to DMSO); higher = more cells surviving (less toxic)
- Condition context: 1000 nM; exposure time: 72 h
Counter-ions that a name gives are not always drawn.
Readout: surviving fraction
One number for each entry.

# Compound, surviving fraction
records = [
    ("COc1cc2nc(N3CCN(C(=O)c4ccco4)CC3)nc(N)c2cc1OC [Prazosin hydrochloride]", 0.837),
    ("C/C=C1\\NC(=O)[C@H]2CSSCC/C=C/[C@H](CC(=O)N[C@H](C(C)C)C(=O)N2)OC(=O)[C@H](C(C)C)NC1=O", 0.245),
    ("Nc1nc(Cl)nc2c1ncn2[C@@H]1O[C@H](CO)[C@@H](O)[C@@H]1F", 0.495),
]

Could you tell me surviving fraction for each of these compounds? They are listed below.
1. C[C@@H]1C[C@@H]([C@H](O)CC2CC(=O)NC(=O)C2)C(=O)[C@@H](C)C1 [Cycloheximide]
2. CCCCCCCCCCCCCCCC[N+](C)(C)CCN(Cc1ccc(OC)cc1)c1ncccn1 [Thonzonium bromide]

[0.584, 0.699]

====

- Tested on: FT3469 (normal neural stem cell line)
- Protocol details: surviving fraction (nuclei count normalised to DMSO); higher = more cells surviving (less toxic)
- Condition context: 12.3 nM; exposure time: 72 h
Counter-ions that a name gives are not always drawn.
Readout: surviving fraction

Example compounds with recorded surviving fraction:
# Compound, surviving fraction
data = [
    ("Cn1nnc2c(C(N)=O)ncn2c1=O [Temozolomide]", 0.927),
    ("CN1[C@@H]2CC[C@H]1CC(OC(=O)c1c[nH]c3ccccc13)C2 (stereo partly specified) [3-Tropanyl-indole-3-carboxylate hydrochloride]", 0.924),
    ("O=C(C1CC1)N1CC[C@@H](Cc2n[nH]c(=O)n2-c2ccc(-c3ccc4occc4c3)cc2)C1", 0.874),
]

Provide reported surviving fraction for each item, in the same order as listed.
1. CCCSc1ccc2[nH]c(NC(=O)OC)nc2c1 [Albendazole]
2. CCN(CC)Cc1ccc(C(=O)N(CCc2ccccc2OC)[C@@H]2CCNC2)cc1
3. COc1cc2c(NC3CCN(C(C)C)CC3)nc(C3CCCCC3)nc2cc1OCCCN1CCCC1 [UNC0638]
4. COc1cc(N)c(Cl)cc1C(=O)NC1CCN(CCCOc2ccc(F)cc2)CC1OC (stereo unspecified) [Cisapride]
5. O=C(Nc1ccc([N+](=O)[O-])cc1Cl)c1cc(Cl)ccc1O [Niclosamide]
6. COC(=O)Nc1nc2cc(C(=O)c3ccc(F)cc3)ccc2[nH]1 [Flubendazol]
7. COc1cc2ncnc(Nc3cccc(Br)c3)c2cc1OC

1. 0.812
2. 1.04
3. 1.02
4. 1.1
5. 0.654
6. 0.827
7. 0.996

Name the reported surviving fraction value associated with the compound CC1(C)S[C@@H]2[C@H](NC(=O)Cc3ccccc3)C(=O)N2[C@H]1C(=O)O [Benzylpenicillin sodium] 1.29

====

- System: E57 (patient-derived glioblastoma stem cells of mesenchymal subtype)
- Protocol details: phenotypic distance (Euclidean, principal components) from DMSO controls (arbitrary units); higher = stronger morphological change
- Condition context: 333.3 nM; exposure time: 72 h
Readout: phenotypic distance

Worked cases, answers included:
# Molecule, System name, Assay value
rows = [
    ("COc1cc2c(cc1-c1c(C)noc1C)ncc1[nH]c(=O)n([C@H](C)c3ccccn3)c12", "E57", 1.91),
    ("COc1cc2c(c(OC)c1OC)-c1ccc(OC)c(=O)cc1[C@@H](NC(C)=O)CC2", "E57", 4.46),
]

Give its phenotypic distance value. Item: CC1CNc2c(cccc2S(=O)(=O)N[C@@H](CCCNC(=N)N)C(=O)N2CC[C@@H](C)C[C@@H]2C(=O)O)C1 (stereo partly drawn) 0.495

Reference for the values: the supplement of paper PMC13207355
